Test system: KRAS PDC multicell spheroid viability
Test: Anticancer human tumor 825966-067-R-J1-PDC patient-derived colon carcinoma cell line growth inhibition [KRAS2]
Conditions: second compound 0.1 µM; first compound 0.0316 µM; stronger effect = lower value
observation_type: viability, T/C (%)
Numeric answer only, unit % assumed.

Query: Could you share which viability, T/C value was measured for COC(=O)c1ccc2c(C(=Nc3ccc(N(C)C(=O)CN4CCN(C)CC4)cc3)c3ccccc3)c(O)[nH]c2c1 + C=CC(=O)N1CCN(c2nc(=O)n(-c3c(C)ccnc3C(C)C)c3nc(-c4c(O)cccc4F)c(F)cc23)C(C)C1 ?
Reply: 83.3

Query: Try the compound CCN1CCN(Cc2ccc(Nc3ncc(F)c(-c4cc(F)c5nc(C)n(C(C)C)c5c4)n3)nc2)CC1 + CNCc1ccccc1-c1csc(C(C)Nc2nc(C)nc3cc(OC)c(OC)cc23)c1
Reply: 126

Query: Try the compound CCN1CCN(Cc2ccc(Nc3ncc(F)c(-c4cc(F)c5nc(C)n(C(C)C)c5c4)n3)nc2)CC1 + CC1OCC2(CCN(c3cnc(Sc4ccnc(N)c4Cl)c(N)n3)CC2)C1N
Reply: 102

Query: Try the compound COc1cc2nccc(Oc3ccc(NC(=O)C4(C(=O)Nc5ccc(F)cc5)CC4)cc3)c2cc1OC + CC1OCC2(CCN(c3cnc(Sc4ccnc(N)c4Cl)c(N)n3)CC2)C1N
Reply: 89.8

Query: Try the compound COC(=O)c1ccc2c(C(=Nc3ccc(N(C)C(=O)CN4CCN(C)CC4)cc3)c3ccccc3)c(O)[nH]c2c1 + CC1OCC2(CCN(c3cnc(Sc4ccnc(N)c4Cl)c(N)n3)CC2)C1N
Reply: 100

====

Tested on: KRAS PDC multicell spheroid viability
Test: Anticancer human tumor 825966-067-R-J1-PDC cell line growth inhibition [KRAS2]; active = viability on the fitted dose curve at most 10% of control; inactive = the rest;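 further: spheroids exposed to compounds for 7 days; 100% = DMSO vehicle control viability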
Conditions: second compound 10 µM; first compound 3.16 µM
Return exactly one item of True = active, False = inactive

Query: What was the test verdict on COc1cc2nccc(Oc3ccc(NC(=O)C4(C(=O)Nc5ccc(F)cc5)CC4)cc3)c2cc1OC + CNCc1ccccc1-c1csc(C(C)Nc2nc(C)nc3cc(OC)c(OC)cc23)c1 ?
Reply: True

Query: Try the compound CC1COCCN1c1cc(-c2ccnn2C)c2ccnc(-c3ccn[nH]3)c2n1 (stereo not drawn) + CC1OCC2(CCN(c3cnc(Sc4ccnc(N)c4Cl)c(N)n3)CC2)C1N
Reply: False

Query: Try the compound CCNC(=O)CC1N=C(c2ccc(Cl)cc2)c2cc(OC)ccc2-n2c(C)nnc21 (stereo not drawn) + CNCc1ccccc1-c1csc(C(C)Nc2nc(C)nc3cc(OC)c(OC)cc23)c1
Reply: True

====

System: KRAS PDC multicell spheroid viability
Assay: Anticancer human tumor 825966-067-R-J1-PDC cell line growth inhibition [KRAS2];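 further: spheroids exposed to compounds for 7 days; 100% = DMSO vehicle control viability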
Conditions: second compound 0.1 µM; first compound 3.16 µM; stronger effect = lower value
Answer each item with its documented viability, T/C.
Numeric answer only, unit % assumed.

Query: viability, T/C of O=C(c1cc(Cc2n[nH]c(=O)c3ccccc23)ccc1F)N1CCN(C(=O)C2CC2)CC1 + C=CC(=O)N1CCN(c2nc(=O)n(-c3c(C)ccnc3C(C)C)c3nc(-c4c(O)cccc4F)c(F)cc23)C(C)C1 on KRAS PDC multicell spheroid viability?
Reply: 71.1

Query: Try the compound CC(=O)OC12COC1CC(O)C1(C)C(=O)C(O)C3=C(C)C(OC(=O)C(O)C(NC(=O)OC(C)(C)C)c4ccccc4)CC(O)(C(OC(=O)c4ccccc4)C21)C3(C)C (stereo not given) + CC1OCC2(CCN(c3cnc(Sc4ccnc(N)c4Cl)c(N)n3)CC2)C1N
Reply: 22

Query: Try the compound CC(C)NCC(C(=O)N1CCN(c2ncnc3c2C(C)CC3O)CC1)c1ccc(Cl)cc1 (stereo not given) + COc1cc2nc(C)nc(NC(C)c3cc(N)cc(C(F)(F)F)c3)c2cc1OC1CCOC1
Reply: 39.4

Query: Try the compound COc1cc(Nc2ncc3c(n2)-c2ccc(Cl)cc2C(c2c(F)cccc2OC)=NC3)ccc1C(=O)O + CC1OCC2(CCN(c3cnc(Sc4ccnc(N)c4Cl)c(N)n3)CC2)C1N
Reply: 154

Query: Try the compound CCNC(=O)CC1N=C(c2ccc(Cl)cc2)c2cc(OC)ccc2-n2c(C)nnc21 (stereo not given) + C=CC(=O)N1CCN(c2nc(OCC3CCCN3C)nc3c2CCN(c2cccc4cccc(C)c24)C3)CC1CC#N
Reply: 79.4

Query: Try the compound CC1COCCN1c1cc(-c2ccnn2C)c2ccnc(-c3ccn[nH]3)c2n1 (stereo not given) + COc1cc2nc(C)nc(NC(C)c3cc(N)cc(C(F)(F)F)c3)c2cc1OC1CCOC1
Reply: 40.1

Query: Try the compound Cn1nccc1Nc1nccc(-c2cc3c(s2)C(C)(C)N(CCN2CCOCC2)C3=O)n1 + CNCc1ccccc1-c1csc(C(C)Nc2nc(C)nc3cc(OC)c(OC)cc23)c1
Reply: 96.1

Query: Try the compound COC(=O)c1ccc2c(C(=Nc3ccc(N(C)C(=O)CN4CCN(C)CC4)cc3)c3ccccc3)c(O)[nH]c2c1 + C=CC(=O)N1CCN(c2nc(=O)n(-c3c(C)ccnc3C(C)C)c3nc(-c4c(O)cccc4F)c(F)cc23)C(C)C1
Reply: 0.37

Query: Try the compound CC1(C)CCC(CN2CCN(c3ccc(C(=O)NS(=O)(=O)c4ccc(NCC5CCOCC5)c([N+](=O)[O-])c4)c(Oc4cnc5[nH]ccc5c4)c3)CC2)=C(c2ccc(Cl)cc2)C1 + CNCc1ccccc1-c1csc(C(C)Nc2nc(C)nc3cc(OC)c(OC)cc23)c1
Reply: 29.4

Query: Try the compound CCNC(=O)CC1N=C(c2ccc(Cl)cc2)c2cc(OC)ccc2-n2c(C)nnc21 (stereo not given) + C=CC(=O)N1CCN(c2nc(=O)n(-c3c(C)ccnc3C(C)C)c3nc(-c4c(O)cccc4F)c(F)cc23)C(C)C1
Reply: 99.5

Query: Try the compound COC(=O)c1ccc2c(C(=Nc3ccc(N(C)C(=O)CN4CCN(C)CC4)cc3)c3ccccc3)c(O)[nH]c2c1 + CC1OCC2(CCN(c3cnc(Sc4ccnc(N)c4Cl)c(N)n3)CC2)C1N
Reply: 0.34

Query: Try the compound COc1cc2nccc(Oc3ccc(NC(=O)C4(C(=O)Nc5ccc(F)cc5)CC4)cc3)c2cc1OC + COc1cc2nc(C)nc(NC(C)c3cc(N)cc(C(F)(F)F)c3)c2cc1OC1CCOC1
Reply: 9.68

Query: Try the compound CC(C)NCC(C(=O)N1CCN(c2ncnc3c2C(C)CC3O)CC1)c1ccc(Cl)cc1 (stereo not given) + C=CC(=O)N1CCN(c2nc(OCC3CCCN3C)nc3c2CCN(c2cccc4cccc(C)c24)C3)CC1CC#N
Reply: 32.3

Query: Try the compound COc1cc2nccc(Oc3ccc(NC(=O)C4(C(=O)Nc5ccc(F)cc5)CC4)cc3)c2cc1OC + CC1OCC2(CCN(c3cnc(Sc4ccnc(N)c4Cl)c(N)n3)CC2)C1N
Reply: 7.16

Query: Try the compound Cn1nccc1Nc1nccc(-c2cc3c(s2)C(C)(C)N(CCN2CCOCC2)C3=O)n1 + CC1OCC2(CCN(c3cnc(Sc4ccnc(N)c4Cl)c(N)n3)CC2)C1N
Reply: 104

Query: Try the compound COc1cc(Nc2ncc3c(n2)-c2ccc(Cl)cc2C(c2c(F)cccc2OC)=NC3)ccc1C(=O)O + C=CC(=O)N1CCN(c2nc(=O)n(-c3c(C)ccnc3C(C)C)c3nc(-c4c(O)cccc4F)c(F)cc23)C(C)C1
Reply: 138

Query: Try the compound CC1COCCN1c1cc(-c2ccnn2C)c2ccnc(-c3ccn[nH]3)c2n1 (stereo not given) + CNCc1ccccc1-c1csc(C(C)Nc2nc(C)nc3cc(OC)c(OC)cc23)c1
Reply: 37.3

Query: Try the compound CC(C)NCC(C(=O)N1CCN(c2ncnc3c2C(C)CC3O)CC1)c1ccc(Cl)cc1 (stereo not given) + CC1OCC2(CCN(c3cnc(Sc4ccnc(N)c4Cl)c(N)n3)CC2)C1N
Reply: 67.5

Query: Try the compound CC(=O)OC12COC1CC(O)C1(C)C(=O)C(O)C3=C(C)C(OC(=O)C(O)C(NC(=O)OC(C)(C)C)c4ccccc4)CC(O)(C(OC(=O)c4ccccc4)C21)C3(C)C (stereo not given) + CNCc1ccccc1-c1csc(C(C)Nc2nc(C)nc3cc(OC)c(OC)cc23)c1
Reply: 23.4

Query: Try the compound CC1COCCN1c1cc(-c2ccnn2C)c2ccnc(-c3ccn[nH]3)c2n1 (stereo not given) + CC1OCC2(CCN(c3cnc(Sc4ccnc(N)c4Cl)c(N)n3)CC2)C1N
Reply: 46.6

Values were extracted from PubChem BioAssay AID1963865.
